Values were extracted from patent US20210330611A1.

tested on: fibrin-induced microglia activation; assay: Image-based assay of fibrin-induced microglia activation (HTS and dose response); assay type: cell-based, rat; details: Rattus norvegicus, Microglia, primary microglia HTS, fibrin stimulation, compounds at 10 μM; read-out: Fibrin % inhibition
Reported inhibition at 10 µM values are given for each entry in this list.
MEASUREMENT NAME: inhibition at 10 µM (%)

> print(dat)
                                   compound  recorded.measurement
1           CCOc1ccccc1C(N)=O [Ethenzamide]                   -15
2  CCOC(=O)/C=C(C)/C=C/C=C(C)/C=C/c1c(C)cc(OC)c(C)c1C [Etretinate]                   -19
3  NC(CO)C(=O)NNCc1ccc(O)c(O)c1O (stereo not drawn) [Benserazide]                   -16
4  Nc1ncnc2c1ncn2[C@@H]1O[C@H](CO)[C@@H](O)[C@H]1O                    -6
5               O=c1c2ccccc2[se]n1-c1ccccc1                   -49
6                        CCOC(=S)SSC(=S)OCC                     4
